# experimental-system: Prostaglandin G/H synthase 2 (Homo sapiens, UniProt P35354)
# Sequence (P35354 whole entry): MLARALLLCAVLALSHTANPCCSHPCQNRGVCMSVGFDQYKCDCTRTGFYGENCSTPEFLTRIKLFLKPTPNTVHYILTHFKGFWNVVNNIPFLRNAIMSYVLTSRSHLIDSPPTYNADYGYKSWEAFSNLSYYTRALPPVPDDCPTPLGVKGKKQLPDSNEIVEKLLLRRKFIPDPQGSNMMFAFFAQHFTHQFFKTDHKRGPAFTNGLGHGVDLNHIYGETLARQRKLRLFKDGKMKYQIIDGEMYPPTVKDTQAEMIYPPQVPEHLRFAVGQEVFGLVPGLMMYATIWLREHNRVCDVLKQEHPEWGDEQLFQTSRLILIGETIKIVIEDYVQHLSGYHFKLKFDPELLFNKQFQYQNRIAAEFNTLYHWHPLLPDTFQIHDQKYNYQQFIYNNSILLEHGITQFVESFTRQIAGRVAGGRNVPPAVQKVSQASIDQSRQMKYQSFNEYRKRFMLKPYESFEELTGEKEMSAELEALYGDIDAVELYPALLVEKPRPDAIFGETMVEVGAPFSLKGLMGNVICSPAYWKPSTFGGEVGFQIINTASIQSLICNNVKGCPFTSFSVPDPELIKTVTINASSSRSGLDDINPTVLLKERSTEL
# assay-name: Inhibition of human recombinant COX2 expressed in Sf21 cells assessed as PGE2 production using arachidonic acid as substrate preincubated for 15 mins measured after 5 mins by EIA
reported-property: IC50
The answer consists of two parts: a number and, after it, its unit.

Request: Item CN=[S+](C)([O-])c1ccc(C2=C(c3ccccc3)C(=O)OC2)cc1 (stereo unspecified) with Prostaglandin G/H synthase 2 (Homo sapiens, UniProt P35354) - IC50?
Response: 0.156 µM

* * *

# experimental-system: Prostaglandin G/H synthase 1 (Homo sapiens)
# Sequence (P23219 whole entry): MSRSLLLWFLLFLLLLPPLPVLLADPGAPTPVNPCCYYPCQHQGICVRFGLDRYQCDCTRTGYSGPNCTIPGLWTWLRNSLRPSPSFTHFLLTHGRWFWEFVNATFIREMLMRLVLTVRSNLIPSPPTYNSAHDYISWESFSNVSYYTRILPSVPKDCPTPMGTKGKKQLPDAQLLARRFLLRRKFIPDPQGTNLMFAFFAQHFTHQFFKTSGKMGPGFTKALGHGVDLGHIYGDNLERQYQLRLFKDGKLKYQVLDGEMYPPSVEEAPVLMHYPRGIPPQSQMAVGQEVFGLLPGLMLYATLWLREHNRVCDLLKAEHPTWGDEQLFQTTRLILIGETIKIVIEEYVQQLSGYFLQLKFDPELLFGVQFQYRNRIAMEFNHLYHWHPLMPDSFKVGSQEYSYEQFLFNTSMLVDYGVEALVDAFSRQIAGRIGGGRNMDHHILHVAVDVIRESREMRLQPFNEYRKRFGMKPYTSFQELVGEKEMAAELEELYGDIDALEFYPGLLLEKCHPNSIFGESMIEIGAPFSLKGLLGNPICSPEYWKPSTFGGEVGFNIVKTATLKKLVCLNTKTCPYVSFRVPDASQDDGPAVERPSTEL
# assay-name: Inhibition of human platelets COX1 assessed as PGE2 production using arachidonic acid as substrate preincubated for 15 mins measured after 15 mins by EIA
reported-property: pIC50
Give bare numbers, as −log10 of the molar value.

Request: Item CN=[S+](C)([O-])c1ccc(C2=C(c3ccccc3)C(=O)OC2)cc1 (stereo unspecified) with Prostaglandin G/H synthase 1 (Homo sapiens) - pIC50?
Response: 7.37

* * *

# experimental-system: hERG (KCNH2) (Homo sapiens, UniProt Q12809)
# Sequence (Q12809 whole entry): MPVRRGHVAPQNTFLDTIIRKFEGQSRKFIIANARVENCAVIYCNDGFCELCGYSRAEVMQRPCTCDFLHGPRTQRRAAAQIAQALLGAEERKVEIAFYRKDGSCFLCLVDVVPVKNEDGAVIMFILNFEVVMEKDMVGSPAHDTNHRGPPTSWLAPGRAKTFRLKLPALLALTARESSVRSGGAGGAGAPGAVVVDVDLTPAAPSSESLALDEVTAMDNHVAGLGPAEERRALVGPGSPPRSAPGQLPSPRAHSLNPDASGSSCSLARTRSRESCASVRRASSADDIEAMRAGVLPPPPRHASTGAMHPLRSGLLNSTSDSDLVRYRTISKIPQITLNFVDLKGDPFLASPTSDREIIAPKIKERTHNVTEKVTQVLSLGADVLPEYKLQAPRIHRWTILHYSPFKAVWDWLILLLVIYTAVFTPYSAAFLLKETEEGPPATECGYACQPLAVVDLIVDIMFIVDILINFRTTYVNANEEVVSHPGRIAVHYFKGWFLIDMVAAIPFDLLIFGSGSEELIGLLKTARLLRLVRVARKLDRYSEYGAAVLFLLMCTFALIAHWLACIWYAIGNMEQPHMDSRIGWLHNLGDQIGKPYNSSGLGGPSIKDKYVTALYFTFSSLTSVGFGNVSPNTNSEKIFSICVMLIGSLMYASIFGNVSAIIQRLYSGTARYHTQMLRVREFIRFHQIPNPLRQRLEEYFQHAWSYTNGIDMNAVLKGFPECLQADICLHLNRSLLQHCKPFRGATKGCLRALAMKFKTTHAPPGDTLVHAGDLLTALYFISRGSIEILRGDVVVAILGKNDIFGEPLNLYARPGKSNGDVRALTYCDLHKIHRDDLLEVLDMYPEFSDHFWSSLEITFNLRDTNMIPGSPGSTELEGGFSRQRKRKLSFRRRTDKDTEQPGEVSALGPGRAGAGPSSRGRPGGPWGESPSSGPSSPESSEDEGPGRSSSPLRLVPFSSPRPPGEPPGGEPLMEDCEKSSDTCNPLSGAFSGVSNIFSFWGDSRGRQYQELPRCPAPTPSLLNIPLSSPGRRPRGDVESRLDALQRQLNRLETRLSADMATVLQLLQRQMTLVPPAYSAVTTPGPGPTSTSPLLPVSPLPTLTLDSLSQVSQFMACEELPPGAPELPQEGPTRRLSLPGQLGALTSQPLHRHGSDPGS
# assay-name: Inhibition of human ERG expressed in HEK293 cells assessed as inhibition of tail current at holding potential of -70 mV at 3.16 uM after 10 mins by whole-cell patch clamp method
# Type: cell-based
# experimental-setup: HEK293 cells that express hERG
reported-property: inhibition at 10 min, 3.16 µM (%)
One number for each entry, in %.

CS(=O)(=O)c1ccc(C2=C(c3ccccc3)C(=O)OC2)cc1; 8.3

Next up:
Request: What measured inhibition at 10 min, 3.16 µM goes with C[S+](=N)([O-])c1ccc(C2=C(c3ccccc3)C(=O)OC2)cc1 (configuration not stated) ?
Response: 7

* * *

# experimental-system: UniProt Q12809
# assay-name: Inhibition of human ERG expressed in HEK293 cells assessed as inhibition of tail current at holding potential of -70 mV at 1 uM after 10 mins by whole-cell patch clamp method relative to control
# Type: cell-based
# experimental-setup: HEK293 cells that express hERG
reported-property: inhibition at 10 min, 1 µM (%)
One number for each entry, in %.

Request: UniProt Q12809 / inhibition at 10 min, 1 µM / C[S+](=N)([O-])c1ccc(C2=C(c3ccccc3)C(=O)OC2)cc1 (stereo unspecified) : value?
Response: -0.1

* * *

Provide the recorded inhibition at 10 min, 10 µM for the entries that follow.
# experimental-system: hERG (KCNH2) (Homo sapiens, UniProt Q12809)
# assay-name: Inhibition of human ERG expressed in HEK293 cells assessed as inhibition of tail current at holding potential of -70 mV at 10 uM after 10 mins by whole-cell patch clamp method
# Assay type: cell-based
# experimental-setup: HEK293 cells that express hERG
Give bare numbers, in %.

C[S+](=N)([O-])c1ccc(C2=C(c3ccccc3)C(=O)OC2)cc1 (configuration not stated); 20

Now look at this entry.
Request: Observed inhibition at 10 min, 10 µM on hERG (KCNH2) (Homo sapiens, UniProt Q12809) for CS(=O)(=O)c1ccc(C2=C(c3ccccc3)C(=O)OC2)cc1 , please.
Response: 10.4

* * *

# experimental-system: hERG (KCNH2) (Homo sapiens, UniProt Q12809)
# assay-name: Inhibition of human ERG expressed in HEK293 cells assessed as inhibition of tail current at holding potential of -70 mV at 1 uM after 10 mins by whole-cell patch clamp method
# Assay type: cell-based
# experimental-setup: HEK293 cells that express hERG
reported-property: inhibition at 10 min, 1 µM (%)
Answers are plain numbers, in %.

CS(=O)(=O)c1ccc(C2=C(c3ccccc3)C(=O)OC2)cc1 [ROFECOXIB]; 6.8

# ---- query molecule ----
Request: Recorded inhibition at 10 min, 1 µM of C[S+](=N)([O-])c1ccc(C2=C(c3ccccc3)C(=O)OC2)cc1 (configuration not stated) , please.
Response: 1.7
